System: early life stage zebrafish (Danio rerio) embryos
test.protocol: Developmental toxicity morphology screen, sealed rotating vial exposure
Format: in vivo
Set-up: unit not given here
condition.summary: benchmark dose; morphology endpoint AXIS
Quick list: bmd, AXIS per entry.
# print the numeric value only

Solved cases (5 shown):
                                   compound  experimental_result
0     CCc1cccc2ccccc12 [1-ethylnaphthalene]              43.8887
1  Cc1ccc2c(C)cccc2c1 [1,6-dimethylnaphthalene]              46.5655
2  Cc1ccc2cccc(C)c2c1 [1,7-dimethylnaphthalene]              23.9279
3  Cc1cc(C)c2c(C)cccc2c1 [2,4,5-trimethylnaphthalene]              24.1954
4  Cc1cc2cccc(C)c2cc1C [1,6,7-trimethylnaphthalene]               32.075

Ask: Give bmd, AXIS for Cc1cc2c(C)ccc(C)c2cc1C [1,4,6,7-tetramethylnaphthalene] tested on early life stage zebrafish (Danio rerio) embryos.
Result: 21.1106

Ask: Give early life stage zebrafish (Danio rerio) embryos bmd, AXIS for the following compound: CCc1ccc2cc(CC)ccc2c1 [2,6-diethylnaphthalene]
Result: 46.8649

Ask: Report measured bmd, AXIS on early life stage zebrafish (Danio rerio) embryos; entry: Cc1cccc2c(C)cccc12 [1,5-dimethylnaphthalene]
Result: 47.5678

---

Tested on: early life stage zebrafish (Danio rerio) embryos
test.protocol: Developmental toxicity morphology screen, sealed rotating vial exposure
Format: in vivo
condition.summary: Fig. 2; nominal concentration
// boundary case: BMC50 LTRK (lower trunk and/or caudal fin at 120 hpf) equal to 30 µM maps to 0.0; strictly smaller maps to 1.0

Example entries begin here.
                                   compound  assigned_class
0   CCCCc1ccc2ccccc2c1 [2-butylnaphthalene]             0.0
1  Cc1cc2cccc(C)c2cc1C [1,6,7-trimethylnaphthalene]             0.0
2  Cc1cc2c(C)ccc(C)c2cc1C [1,4,6,7-tetramethylnaphthalene]             1.0

Now, please, on to the next compound.
Ask: Given CCc1ccc2ccccc2c1 [2-ethylnaphthalene] , is recorded BMC50 LTRK (lower trunk and/or caudal fin at 120 hpf) strictly lower than 30 µM?
Result: 0.0

---

Test system: zebrafish larvae, 120 hpf
test.protocol: Larval photomotor response (LPR) assay after vial exposure
Assay type: in vivo, Danio rerio
condition.summary: LPR, period dark, round 1, conc 25
measured.attribute: fold_change
Provide a numeric answer; units are not to be included.

As a guide, the following entries are already answered.
      smiles_notation  measured_attribute  experimental_result
0    CCc1ccc2ccccc2c1         fold_change              -0.9177
1  Cc1cccc2c(C)cccc12         fold_change              -0.1166
2  Cc1ccc2cccc(C)c2c1         fold_change              -0.6391

Ask: Give reported fold_change for CC(C)(C)c1ccc2ccc(C(C)(C)C)cc2c1 (zebrafish larvae, 120 hpf)
Result: -1.44

Ask: GET fold_change | system: zebrafish larvae, 120 hpf | item: Cc1ccc(C)c2ccccc12
Result: -0.2067

Ask: Enter recorded fold_change with zebrafish larvae, 120 hpf for CC(C)c1ccc2cc(C(C)C)ccc2c1 here.
Result: -0.09025

Ask: Lab note: record fold_change of Cc1ccc2ccccc2c1 tested on zebrafish larvae, 120 hpf.
Result: 0.07059

Ask: Give measured fold_change for Cc1ccc2ccc(C)cc2c1 (zebrafish larvae, 120 hpf).
Result: -0.7363

Ask: Under zebrafish larvae, 120 hpf, report fold_change for Cc1ccc2cc(C)ccc2c1
Result: -0.6771

Ask: Enter fold_change (test system zebrafish larvae, 120 hpf) for CCc1ccc2cc(CC)ccc2c1
Result: -0.5473

Ask: Report its fold_change with zebrafish larvae, 120 hpf as the test system: Cc1ccc2c(C)c(C)ccc2c1C
Result: -0.1628

Entry source: paper PMC12560828
